Field: EC50. Provide a value for each of the binders that follow.
Biological target: T1, full-length beta-Catenin (Uniprot ID P35222) (Homo sapiens (Human), UniProt P35222 1-781)
T1 construct: also called bCat; B-Catenin
T1 sequence: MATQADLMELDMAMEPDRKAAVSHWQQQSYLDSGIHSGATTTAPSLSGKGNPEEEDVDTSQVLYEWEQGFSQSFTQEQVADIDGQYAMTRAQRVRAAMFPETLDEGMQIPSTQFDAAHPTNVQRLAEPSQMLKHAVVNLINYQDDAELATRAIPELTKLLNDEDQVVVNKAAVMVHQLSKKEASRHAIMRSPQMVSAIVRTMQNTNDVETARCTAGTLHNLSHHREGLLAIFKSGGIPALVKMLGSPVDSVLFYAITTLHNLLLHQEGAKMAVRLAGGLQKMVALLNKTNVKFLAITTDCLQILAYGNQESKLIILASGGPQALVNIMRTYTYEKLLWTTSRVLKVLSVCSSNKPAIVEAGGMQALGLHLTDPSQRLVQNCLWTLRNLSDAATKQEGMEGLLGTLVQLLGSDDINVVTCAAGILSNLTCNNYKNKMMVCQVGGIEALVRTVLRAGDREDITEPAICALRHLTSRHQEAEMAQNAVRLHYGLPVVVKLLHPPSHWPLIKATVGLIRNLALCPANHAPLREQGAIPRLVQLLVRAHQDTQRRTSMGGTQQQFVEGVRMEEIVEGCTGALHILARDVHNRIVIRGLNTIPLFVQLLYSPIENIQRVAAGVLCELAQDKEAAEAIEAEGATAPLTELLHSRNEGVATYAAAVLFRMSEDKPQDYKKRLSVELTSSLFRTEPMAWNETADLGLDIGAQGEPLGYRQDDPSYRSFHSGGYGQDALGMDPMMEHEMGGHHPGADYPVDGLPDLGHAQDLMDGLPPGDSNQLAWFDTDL
Experiment: fluorescence polarization competition; displacement of 5FAM-TCF4(10-53) from full-length beta-catenin
Starred links: 1 amine or outer side, 2 acyl side, 3 side chain; linkers in the order of their positions; H or OH if unused. Positions of bridges follow the written chain, without caps; N, C: chain ends. Non-standard residues stand in square brackets, D forms with d. Primed or numbered codes have the meaning given here. B5(5) = 2,2-bis(4-pentenyl)glycine, 2-amino-2-(pent-4-en-1-yl)hept-6-enoic acid (stitching residue), C=CCCCC(CCCC=C)(N[*:1])C(=O)[*:2]; B5(21) = 2-amino-2-(pent-4-en-1-yl)hept-6-enoic acid, bis(4-pentenyl)glycine (stitching residue), C=CCCCC(CCCC=C)(N[*:1])C(=O)[*:2]; (NHCyPr)AsnR = N4-cyclopropyl-L-asparagine, O=C(C[C@H](N[*:1])C(=O)[*:2])NC1CC1; TOMe = O-methyl-L-threonine, CO[C@H](C)[C@H](N[*:1])C(=O)[*:2]; Bta = N[C@@H](Cc1csc2ccccc12)C(=O)O; αAllylPro = C=CC[C@@]1(C(=O)O)CCCN1; S8 = C=CCCCCCC[C@](C)(N)C(=O)O
Report only the number, with the unit nM understood.

*Q* So what does the record say about EC50 for XDLXDDAAFNXFXQ (not fully specified; Ac-PL3-Asp-Leu-B5-Asp-Asp-Ala-Ala-Phe-Asn-S8-Phe-BztA-Gln-NH2; N-terminal acetyl, C-terminal amide; non-natural: PL3(1), B5(4), S8(11), BztA(13); staples PL3(1)-B5(4) and B5(4)-S8(11)) [I-563] ?
*A* 19

*Q* What do we get for Ac-[αAllylPro]DL[B5(5)]DDAAFN[S8]F[Bta]Q-NH2 (staple 1-4, 4-11) [I-562] ?
*A* 51

*Q* What do we get for Ac-[αAllylPro]D[TOMe][B5(21)]DEAAFQ[S8]F[Bta]Q-NH2 (staple 1-4, 4-11) [I-541] ?
*A* 180

*Q* What do we get for Ac-[αAllylPro]DA[B5(21)][(NHCyPr)AsnR]DAAFV[S8]F[Bta]Q-NH2 (staple 1-4, 4-11, Stapled (stitched) peptide composition) [I-538] ?
*A* 5000

*Q* What do we get for XDLXDDAAFQXFXH (not fully specified; Ac-PL3-Asp-Leu-B5-Asp-Asp-Ala-Ala-Phe-Gln-S8-Phe-BztA-His-NH2; N-terminal acetyl, C-terminal amide; non-natural: PL3(1), B5(4), S8(11), BztA(13); staples PL3(1)-B5(4) and B5(4)-S8(11)) [I-561] ?
*A* 34

*Q* What do we get for XDIXDDAAFNXFXQ (not fully specified; Ac-PL3-Asp-Ile-B5-Asp-Asp-Ala-Ala-Phe-Asn-S8-2OMeF-BztA-Gln-NH2; N-terminal acetyl, C-terminal amide; non-natural: PL3(1), B5(4), S8(11), 2OMeF(12), BztA(13); staples PL3(1)-B5(4) and B5(4)-S8(11)) [I-549] ?
*A* 71
